# assayProcedure: Antioxidant activity assessed as inhibition of lipid peroxidation at 0.0312 g/L after 2 hrs by beta carotene bleaching method
# Format: functional
measuredQuantity: inhibition (%)
// units = %; emit number, no label

Below: 3 compounds and their reported inhibition.
Cc1sc2c(Nc3cccnc3)cccc2c1C: 65.4
Cc1sc2c(Nc3ccccn3)cccc2c1C: 42.9
COc1cccc(Nc2cccc3c(C)c(C)sc23)c1: 62.9

Now for the compound whose inhibition we want.
Sample Cc1sc2c(Nc3ccc(C#N)cc3)cccc2c1C ; inhibition observed: 67.3

* * *

Each entry below carries its reported inhibition.
# assayProcedure: Antioxidant activity assessed as inhibition of lipid peroxidation at 0.0625 g/L after 2 hrs by beta carotene bleaching method
# Format: functional
Give the quantity in %, number only.

Here's what some known entries look like.
Cc1sc2c(Nc3ccc(C#N)cc3)cccc2c1C: 69
COc1cccc(Nc2cccc3c(C)c(C)sc23)c1: 68.9

// next entry
The reported value for Cc1sc2c(Nc3cccnc3)cccc2c1C in terms of inhibition is 70.9
